Assay: Turbidimetric solubility
Type: physicochemical
Details: aqueous buffer, kinetic from dmso stock
From the text: Turbidimetric solubility: Test compound solution prepared in DMSO diluted into aqueous buffer. Turbidimetry is used as the end-point by measuring absorbance at 620 nm.
value-kind: solubility

stdin: // lookup solubility for C[C@@H]1C[C@@H](NC(=O)c2nnc(-c3cccc(C#N)c3)o2)CN1C#N [Example 1]
stdout: 65 µM

---

Test system: P-glycoprotein (MDR1), human
Assay: MDR1-MDCK flux assay
Format: in vitro ADME, Canine
Conditions: dog
Excerpt: The treatment of CNS disorders, including Alzheimer's disease, Parkinson's disease, and other disorders described herein, requires drug molecules to target the brain, which requires adequate penetration of the blood brain barrier. […] Additionally, exposure may also be measured directly in brain and plasma using in vivo animal models. […]
value-kind: efflux ratio
Write the number on its own, no unit after it.

stdin: Give its efflux ratio value. Item: C[C@@H]1C[C@@H](NC(=O)c2nnc(-c3cccc(C#N)c3)o2)CN1C#N
stdout: 81
